Molecular target: Protein cereblon/Tyrosine-protein kinase BTK (Homo sapiens, UniProt Q06187+Q96SW2)
Sequence (Q06187 2-659 limits assumed): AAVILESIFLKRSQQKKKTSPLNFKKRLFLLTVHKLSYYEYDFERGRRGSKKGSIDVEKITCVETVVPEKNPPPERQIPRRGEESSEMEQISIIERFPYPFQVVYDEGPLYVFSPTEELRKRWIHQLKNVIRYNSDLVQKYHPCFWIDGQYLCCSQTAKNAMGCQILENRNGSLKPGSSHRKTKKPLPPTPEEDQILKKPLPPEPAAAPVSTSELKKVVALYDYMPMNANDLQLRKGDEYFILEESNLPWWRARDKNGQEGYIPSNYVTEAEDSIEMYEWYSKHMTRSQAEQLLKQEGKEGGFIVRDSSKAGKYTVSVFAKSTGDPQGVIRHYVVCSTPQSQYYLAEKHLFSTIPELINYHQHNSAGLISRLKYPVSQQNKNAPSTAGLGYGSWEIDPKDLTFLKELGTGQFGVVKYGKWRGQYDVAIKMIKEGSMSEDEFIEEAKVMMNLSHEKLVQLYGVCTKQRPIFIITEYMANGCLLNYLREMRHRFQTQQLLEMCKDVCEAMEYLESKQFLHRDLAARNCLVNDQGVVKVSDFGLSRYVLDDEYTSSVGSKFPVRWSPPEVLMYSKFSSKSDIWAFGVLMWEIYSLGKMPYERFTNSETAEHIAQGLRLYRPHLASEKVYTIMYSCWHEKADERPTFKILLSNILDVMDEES
Sequence (Q96SW2 whole entry partner): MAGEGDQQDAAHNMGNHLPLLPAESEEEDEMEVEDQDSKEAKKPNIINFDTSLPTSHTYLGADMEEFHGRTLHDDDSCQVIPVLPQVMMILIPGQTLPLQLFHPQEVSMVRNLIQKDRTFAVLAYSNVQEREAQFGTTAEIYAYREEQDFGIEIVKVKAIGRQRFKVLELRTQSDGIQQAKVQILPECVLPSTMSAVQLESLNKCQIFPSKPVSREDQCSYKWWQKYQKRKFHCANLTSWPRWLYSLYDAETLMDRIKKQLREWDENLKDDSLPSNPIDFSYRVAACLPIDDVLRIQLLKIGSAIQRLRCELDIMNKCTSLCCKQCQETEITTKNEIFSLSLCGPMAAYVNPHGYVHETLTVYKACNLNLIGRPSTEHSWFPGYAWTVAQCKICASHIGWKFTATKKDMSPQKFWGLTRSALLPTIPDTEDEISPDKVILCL
Assay: PROTAC activity at BTK/CRBN protein protein interaction in human JeKo-1 cell assessed as degradation of BTK incubated for 17 hrs measured by Western blot analysis relative to control
Format: cell-based
EXPERIMENTAL_ENDPOINT: Emax (%)
Answer format: numeric, % implied, no suffix.

C[C@H]1CN(C(=O)CCCNc2cccc3c2C(=O)N(C2CCC(=O)NC2=O)C3=O)CCN1c1ccc(Nc2cc(-c3ccnc(N4CCn5c(cc6c5CC(C)(C)C6)C4=O)c3CO)cn(C)c2=O)nc1 (stereo not given in full) :: 97.4
C[C@H]1CN(C(=O)CNc2ccc3c(c2)C(=O)N(C2CCC(=O)NC2=O)C3=O)CCN1c1ccc(Nc2cc(-c3ccnc(N4CCn5c(cc6c5CC(C)(C)C6)C4=O)c3CO)cn(C)c2=O)nc1 (stereo not given in full) :: 97.6
C[C@H]1CN(C(=O)COc2cccc3c2C(=O)N(C2CCC(=O)NC2=O)C3=O)CCN1c1ccc(Nc2cc(-c3ccnc(N4CCn5c(cc6c5CC(C)(C)C6)C4=O)c3CO)cn(C)c2=O)nc1 (stereo not given in full) :: 97
C[C@H]1CN(C(=O)CCCCCCCCCNc2cccc3c2C(=O)N(C2CCC(=O)NC2=O)C3=O)CCN1c1ccc(Nc2cc(-c3ccnc(N4CCn5c(cc6c5CC(C)(C)C6)C4=O)c3CO)cn(C)c2=O)nc1 (stereo not given in full) :: 97.1
C[C@H]1CN(CCCCCCOCCOCC(=O)Nc2cccc3c2C(=O)N(C2CCC(=O)NC2=O)C3=O)CCN1c1ccc(Nc2cc(-c3ccnc(N4CCn5c(cc6c5CC(C)(C)C6)C4=O)c3CO)cn(C)c2=O)nc1 (stereo not given in full) :: 96.9

// Emax lookup, key: C[C@H]1CN(C(=O)CNc2cccc3c2CN(C2CCC(=O)NC2=O)C3=O)CCN1c1ccc(Nc2cc(-c3ccnc(N4CCn5c(cc6c5CC(C)(C)C6)C4=O)c3CO)cn(C)c2=O)nc1 (stereo not given in full)
89.2

Would you kindly repeat that for Cn1cc(-c2ccnc(N3CCn4c(cc5c4CC(C)(C)C5)C3=O)c2CO)cc(Nc2ccc(N3CCN(C(=O)CCCCCCOCCOCC(=O)Nc4cccc5c4C(=O)N(C4CCC(=O)NC4=O)C5=O)CC3)cn2)c1=O (stereo not given) ?
98.8

Ok, now Cn1cc(-c2ccnc(N3CCn4c(cc5c4CC(C)(C)C5)C3=O)c2CO)cc(Nc2ccc(N3CCN(C(=O)CCCCCCNc4cccc5c4C(=O)N(C4CCC(=O)NC4=O)C5=O)CC3)cn2)c1=O (stereo not given)
98

And what about the compound C[C@H]1CN(C(=O)CNc2cccc3c2C(=O)N(C2CCC(=O)NC2=O)C3=O)CCN1c1ccc(Nc2cc(-c3ccnc(N4CCn5c(cc6c5CC(C)(C)C6)C4=O)c3CO)cn(C)c2=O)nc1 (stereo not given in full) ?
95.7

Request: C[C@H]1CN(C(=O)CCOCCOCCNc2cccc3c2C(=O)N(C2CCC(=O)NC2=O)C3=O)CCN1c1ccc(Nc2cc(-c3ccnc(N4CCn5c(cc6c5CC(C)(C)C6)C4=O)c3CO)cn(C)c2=O)nc1 (stereo not given in full)
95.1
